- system-name: SCD5 (Homo sapiens)
- Construct: host or cells: S. cerevisiae ole1Δ strain (W303 pdr1Δ pdr3Δ background), plasmid pRS316 with TDH3 promoter and CYC1 terminator
- Sequence (Q86SK9 1-330): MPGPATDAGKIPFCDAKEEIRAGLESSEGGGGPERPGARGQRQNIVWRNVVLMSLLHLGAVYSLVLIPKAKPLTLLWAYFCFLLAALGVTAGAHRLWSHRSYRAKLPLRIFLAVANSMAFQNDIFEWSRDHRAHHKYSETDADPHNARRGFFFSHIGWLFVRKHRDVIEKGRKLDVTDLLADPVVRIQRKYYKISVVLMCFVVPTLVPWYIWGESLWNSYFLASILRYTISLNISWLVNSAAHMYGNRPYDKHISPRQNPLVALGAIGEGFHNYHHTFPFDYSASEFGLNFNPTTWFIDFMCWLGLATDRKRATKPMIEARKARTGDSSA
- assay-info: Growth inhibition of humanized yeast strain expressing SCD5 as sole desaturase
- Format: cell-based
- test-settings: humanized yeast strain, 40 h
- Procedure: Strain oleΔ (yeast ole1 deletion mutant) was constructed by deleting OLE1 with NAT-MX6 in BY4741, amplifying the deletion cassette from the genomic DNA of the resulting strain with primers flanking the ORF by 1000 bp upstream and downstream, transforming the resulting deletion cassette into W303 pdr1Δ pdr3Δ, and plating transformants on YPD media containing G418 (200 μg/mL) and nourseothricin ([…]) with 0.01% TWEEN®-20 and 0.5 mM oleic and palmitoleic acids. […]
observation-type: IC50 (µM)

• O=C(N1CCC(c2cc(-c3cc4c(cn3)cnn4C3COC3)on2)CC1)C1(F)CC1 = 0.01
• COC1(C(=O)N2CCN(c3noc(-c4ccc5cnn(C(C)C)c5c4)n3)CC2)CC1 = 1.9
• CCC(=O)N1CCN(c2nc(-c3ccc4cnn(C5CN(C(=O)CC)C5)c4c3)no2)CC1 = 0.2
• O=C(c1ccccc1F)N1CCN(c2noc(-c3ccc4cnn(C5CNC5)c4c3)n2)CC1 = 0.01

---

- system-name: SCD5 (Homo sapiens)
- Construct: host or cells: S. cerevisiae ole1Δ strain (W303 pdr1Δ pdr3Δ background), plasmid pRS316 with TDH3 promoter and CYC1 terminator
- assay-info: Growth inhibition of humanized yeast strain expressing SCD5 as sole desaturase
- Assay type: cell-based
- test-settings: humanized yeast strain, 40 h
pIC50: −log10 of the molar value.
Reported pIC50 values are given for each entry in this list.
observation-type: pIC50

• CCC(=O)N1CCC(c2nc(-c3ccc4onc(C(C)C)c4c3)no2)CC1 [Compound 940] = 4.51
• CC(C)(C)OC(=O)N1CCC(c2noc(N3CCc4nn(C5COC5)cc4C3)n2)CC1 [Compound 1172] = 5.00
• CC(C)n1ncc2cnc(-c3cc(C4CCN(C(=O)OC5(C)CC5)CC4)on3)cc21 [Compound 919] = 6.74
• CC(C)(C)OC(=O)N1C[C@@H]2[C@H](C1)[C@H]2C(=O)NCc1ccc(Cl)cc1 [Compound 773] = 4.67

---

- system-name: Ole1 (Saccharomyces cerevisiae)
- Construct: expressed in transfected cells; host or cells: S. cerevisiae ole1Δ strain (W303 pdr1Δ pdr3Δ background), plasmid pRS316 with TDH3 promoter and CYC1 terminator
- Sequence (P21147 1-510): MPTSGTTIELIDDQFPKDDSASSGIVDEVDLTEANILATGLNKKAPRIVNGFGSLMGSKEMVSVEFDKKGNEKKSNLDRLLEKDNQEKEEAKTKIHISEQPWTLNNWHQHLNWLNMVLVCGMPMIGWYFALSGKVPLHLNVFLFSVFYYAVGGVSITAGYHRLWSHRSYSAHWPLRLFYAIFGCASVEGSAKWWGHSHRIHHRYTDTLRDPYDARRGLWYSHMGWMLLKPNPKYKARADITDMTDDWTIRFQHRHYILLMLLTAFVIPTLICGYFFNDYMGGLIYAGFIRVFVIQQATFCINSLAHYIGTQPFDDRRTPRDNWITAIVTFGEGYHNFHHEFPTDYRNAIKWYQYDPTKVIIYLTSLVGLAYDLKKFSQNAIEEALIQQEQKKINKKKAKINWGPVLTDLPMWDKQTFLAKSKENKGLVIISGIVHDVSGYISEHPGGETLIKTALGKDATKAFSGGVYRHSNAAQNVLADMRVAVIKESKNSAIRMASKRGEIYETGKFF
- assay-info: Growth inhibition of yeast strain expressing Ole1 as sole desaturase
- Assay type: cell-based
- test-settings: yeast strain expressing Ole1 as sole desaturase
observation-type: OLE1 % Max Inhibition (%)

* CCOc1ccc(-c2noc(C3CCN(C(=O)[C@@H]4CN(c5ccccc5)C(=O)O4)CC3)n2)cc1OC | 3.99
* COc1cc(OC)cc(-c2noc(C3CCN(C(=O)CNC(=O)c4ccccc4)CC3)n2)c1 | 97.42
* Cc1nn(C)c2cc(-c3noc(C4CCN(C(=O)[C@H]5CC(=O)N(c6ccccc6)C5)CC4(F)F)n3)ccc12 (stereo partly shown) | 6.15
* COc1ccc(-c2noc(N3CCC(C(=O)NCCc4ccccc4)CC3)n2)cc1OC | 34.89

---

- system-name: SCD1 (Homo sapiens)
- Construct: host or cells: S. cerevisiae ole1Δ strain (W303 pdr1Δ pdr3Δ background), plasmid pRS316 with TDH3 promoter and CYC1 terminator
- Sequence (O00767 1-359): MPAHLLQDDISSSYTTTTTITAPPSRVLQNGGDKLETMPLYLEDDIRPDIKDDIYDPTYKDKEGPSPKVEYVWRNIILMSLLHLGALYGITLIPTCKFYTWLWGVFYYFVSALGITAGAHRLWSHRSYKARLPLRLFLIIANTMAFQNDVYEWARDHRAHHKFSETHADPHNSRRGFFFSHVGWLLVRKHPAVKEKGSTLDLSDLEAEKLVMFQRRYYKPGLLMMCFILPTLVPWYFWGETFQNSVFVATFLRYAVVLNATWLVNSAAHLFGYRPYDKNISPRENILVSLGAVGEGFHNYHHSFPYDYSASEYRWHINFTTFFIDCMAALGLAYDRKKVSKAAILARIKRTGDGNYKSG
- assay-info: Growth inhibition of humanized yeast strain expressing SCD1 as sole desaturase
- Assay type: cell-based
- test-settings: humanized yeast strain expressing SCD1
- Protocol: Strain oleΔ (yeast ole1 deletion mutant) was constructed by deleting OLE1 with NAT-MX6 in BY4741, amplifying the deletion cassette from the genomic DNA of the resulting strain with primers flanking the ORF by 1000 bp upstream and downstream, transforming the resulting deletion cassette into W303 pdr1Δ pdr3Δ, and plating transformants on YPD media containing G418 (200 μg/mL) and nourseothricin ([…]) with 0.01% TWEEN®-20 and 0.5 mM oleic and palmitoleic acids. […]
# binarize SCD1 % Max Inhibition: threshold 70% inclusive, high side TRUE, low side FALSE

• CCN1C(=O)COc2ccc(-c3nc(C4(c5ccc(OC)cc5)CC4)no3)cc21 [Compound 158] = TRUE
• Cc1nn(C)c2cc(-c3noc(C4CCN(C(=O)N[C@@H]5C[C@@H]5c5ccccc5)CC4)n3)ccc12 [Compound 329] = FALSE
• CCOc1ccc(-c2noc(C3CCN(C(=O)[C@@H]4CN(c5ccccc5)C(=O)O4)CC3)n2)cc1OC [Compound 172] = TRUE
• COc1ccc(-c2noc(C3CCN(C(=O)CNCc4ccccc4)CC3)n2)cc1OC [Compound 30] = TRUE
• Cc1nn(C)c2cc(-c3nc(C4CCN(C(=O)CNC(=O)c5ccccc5)CC4)no3)ccc12 [Compound 326] = TRUE
• CCOc1ccc(-c2noc(C3CCN(C(=O)CN4Cc5c(F)cccc5C4=O)CC3)n2)cc1OC [Compound 175] = TRUE
• COc1ccc(N2CC(C(=O)N3CCC(c4nc(-c5ccc6c(C)nn(C)c6c5)no4)CC3)CC2=O)cc1 (stereo not drawn) [Compound 206] = TRUE
• Cc1nn(C)c2cc(-c3noc(C4CCN(C(=O)[C@H]5CC(=O)N(c6ccccc6)C5)C(C)C4)n3)ccc12 (stereo partly drawn) [Compound 240] = FALSE
• Cc1nn(C)c2cc(-c3nc([C@@H]4C[C@H]5CC[C@@H](C4)N5C(=O)OC(C)(C)C)no3)ccc12 [Compound 341] = FALSE
• Cc1nn(C)c2ccc(-c3noc(C4CCN(C(=O)N5CCCCC5)CC4)n3)cc12 [Compound 117] = TRUE
• CC(C)(CO)n1cc2ccc(-c3noc(C4CCN(C(=O)C5CC(=O)N(c6ccccc6)C5)CC4)n3)cc2n1 (stereo not drawn) [Compound 201] = TRUE
• Cc1nn(C)c2cc(-c3noc(C4CCN(C(=O)CC5CC5)CC4)n3)ccc12 [Compound 264] = FALSE

---

- system-name: SCD5 (Homo sapiens)
- Construct: host or cells: S. cerevisiae ole1Δ strain (W303 pdr1Δ pdr3Δ background), plasmid pRS316 with TDH3 promoter and CYC1 terminator
- assay-info: Growth inhibition of humanized yeast strain expressing SCD5 as sole desaturase
- Format: cell-based
- test-settings: humanized yeast strain, 40 h
pIC50: −log10 of the molar value.
Reported pIC50 values are given for each entry in this list.
observation-type: pIC50

• Cn1cc(-c2cc(-c3nc(C4CCN(C(=O)OC(C)(C)C)CC4)no3)ccn2)cn1 = 6.14
• CN(c1cc(-c2nc(N3CCN(C(=O)OC(C)(C)C)CC3)no2)ccn1)C1COC1 = 8.00
• O=C(C1CCC1)N1CCN(c2nnc(-c3ccc4cnn(C5COC5)c4c3)o2)CC1 = 5.30
• Clc1cnc2n1CCN(c1noc(-c3ccc4cnn(C5COC5)c4c3)n1)C2 = 8.00
• CC(C)(C)OC(=O)N1CC2(CC(c3noc(-c4ccc5cnn(C6COC6)c5c4)n3)C2)C1 = 6.77
• CC(C)(C)OC(=O)N1CCC(c2noc(-c3ccc4cnn(C5CCOC5)c4c3)n2)CC1 (centres unmarked) = 8.00

FYI, the data here is from patent US11873298B2.
